System: Lomentospora prolificans
testDescription: Antifungal activity against Scedosporium prolificans 05-203060 after 24 to 72 hrs by broth microdilution method
Type: functional
metricName: MIC (µg/mL)
Give the quantity in µg/mL, number only.

Before answering, review these 8 worked examples.
[
  {
    "chemSmiles": "CC(C)(C)CCc1cc[n+](CCCCCCCCCCCC[n+]2ccc(CCC(C)(C)C)cc2)cc1.[Cl-].[Cl-]",
    "measurementTarget": "Lomentospora prolificans",
    "MIC / µg/mL": 1.58
  },
  {
    "chemSmiles": "CCCCCc1cc[n+](CCCCCCCCCCCC[n+]2ccc(CCCCC)cc2)cc1.[Cl-].[Cl-]",
    "measurementTarget": "Lomentospora prolificans",
    "MIC / µg/mL": 1.48
  },
  {
    "chemSmiles": "C=CCCCc1cc[n+](CCCCCCCCCCCC[n+]2ccc(CCCC=C)cc2)cc1.[Cl-].[Cl-]",
    "measurementTarget": "Lomentospora prolificans",
    "MIC / µg/mL": 1.48
  },
  {
    "chemSmiles": "CCCCCc1cc[n+](CCCCCCCCCCCC[n+]2ccc(CCCCC)c(C)c2)cc1C.[Cl-].[Cl-]",
    "measurementTarget": "Lomentospora prolificans",
    "MIC / µg/mL": 1.58
  },
  {
    "chemSmiles": "CC(C)CCc1cc[n+](CCCCCCCCCCCC[n+]2ccc(CCC(C)C)cc2)cc1.[Cl-].[Cl-]",
    "measurementTarget": "Lomentospora prolificans",
    "MIC / µg/mL": 2.96
  },
  {
    "chemSmiles": "CCCCCCc1cc[n+](CCCCCCCCCCCC[n+]2ccc(CCCCCC)cc2)cc1.[Cl-].[Cl-]",
    "measurementTarget": "Lomentospora prolificans",
    "MIC / µg/mL": 25.3
  },
  {
    "chemSmiles": "CCCCCc1cccc[n+]1CCCCCCCCCCCC[n+]1ccccc1CCCCC.[Cl-].[Cl-]",
    "measurementTarget": "Lomentospora prolificans",
    "MIC / µg/mL": 1.48
  },
  {
    "chemSmiles": "CCCCC(CCCC)c1cc[n+](CCCCCCCCCCCC[n+]2ccc(C(CCCC)CCCC)c(C)c2)cc1C.[Cl-].[Cl-]",
    "measurementTarget": "Lomentospora prolificans",
    "MIC / µg/mL": 3.7
  }
]

Below: the item to evaluate.
The reported value for CCCCCc1cc[n+](CCCCCCCCCCCC[n+]2ccc(CCCCC)c(CCCCC)c2)cc1CCCCC.[Cl-].[Cl-] in terms of MIC is 1.86

---

Test system: Cryptococcus gattii species complex
testDescription: Antifungal activity against Cryptococcus gattii 05-200122 after 24 to 72 hrs by broth microdilution method
Assay type: functional, Cryptococcus bacillisporus
MIC values by entry

Before answering, review these 3 worked examples.
[
  {
    "chemSmiles": "CCCCCc1cc[n+](CCCCCCCCCCCC[n+]2ccc(CCCCC)c(C)c2)cc1C.[Cl-].[Cl-]",
    "measurementTarget": "Cryptococcus gattii species complex",
    "MIC": "0.79 µg/mL"
  },
  {
    "chemSmiles": "[Cl-].[Cl-].c1ccc(CCCc2cc[n+](CCCCCCCCCCCC[n+]3ccc(CCCc4ccccc4)cc3)cc2)cc1",
    "measurementTarget": "Cryptococcus gattii species complex",
    "MIC": "1.74 µg/mL"
  },
  {
    "chemSmiles": "CCCCCc1cccc[n+]1CCCCCCCCCCCC[n+]1ccccc1CCCCC.[Cl-].[Cl-]",
    "measurementTarget": "Cryptococcus gattii species complex",
    "MIC": "1.48 µg/mL"
  }
]

Below: the item to evaluate.
For the compound CCCCC(CCCC)c1cc[n+](CCCCCCCCCCCC[n+]2ccc(C(CCCC)CCCC)c(C)c2)cc1C.[Cl-].[Cl-] , the measured MIC on Cryptococcus gattii species complex was 1.86 µg/mL

# credit: ChEMBL document CHEMBL1629527
